Cited source for all entries: ChEMBL document CHEMBL3988442

The compounds listed here are annotated with their Percent Effect.
# Tested on: Wolbachia pipientis
# assay.overview: Anti-Wolbachia Cell-Based Screen
# Assay type: functional
# Set-up: scale not given: in the data most compounds retested in dose-response had high values
# condition.set: 5 µM
Hit rate of the full screen: of about 48,000 compounds, about 13,000 (27%) showed an effect of 50% or more. Some of the results follow.
Quick reminder: number only, in %, skip the unit.

Worked cases, answers included:
| compound | value.unit | Percent Effect |
| --- | --- | --- |
| CCN(CC)S(=O)(=O)CCNC(=O)N(C)C(C)c1ccccn1 (stereo not given) | % | -1.522 |
| CC(=O)N1N=C(c2ccccc2)OC1C(=O)NCCc1ccc(O)cc1 (stereo not given) | % | 114.8 |
| COc1ccc(CN(C)[C@@H]2COC[C@H]2c2ccc(F)cc2)cc1.O=C(O)CC(O)(CC(=O)O)C(=O)O | % | 117.4 |

Quick check: Percent Effect of CN1CCC(CNC(=O)c2ccc3cccc(Cl)c3n2)C1 (stereo not given) ? 16.58

Entry under review: O=C(CS(=O)(=O)c1ccc(Cl)cc1)NC1CCCc2ccccc21 (stereo not given) . Reported Percent Effect? 1.396

Please report the recorded Percent Effect for CC(=O)N1N=C(c2ccccc2)OC1C(=O)NCCc1ccc(C)cc1 (stereo not given) . 114.7

Dear colleague, I am looking for the recorded Percent Effect of the following compound: Cc1ccc2cccc(S(=O)(=O)N(C)CC3CCN(C)C3)c2n1 (stereo not given) 116.7

Which Percent Effect value belongs to `Cn1cc(C(=O)N2CCCN(c3cccnn3)CC2)c2ccccc21` ? -6.467

Return reported Percent Effect; argument: CN1CCCC(N(C)C(=O)c2ccc(NC(=O)c3cc[nH]n3)cc2)C1 (stereo not given) -7.369

Fill in: Percent Effect of CC(=O)N1N=C(c2ccccc2)OC1C(=O)NCCOc1ccccc1 (stereo not given) is ___ 130.7

Value lookup for Percent Effect; key = `Cc1ccc2cccc(S(=O)(=O)N(C)CC3CCN(C)CC3)c2n1` 117.6

Query (compound): `COCCc1noc(Cn2ccc3ncccc3c2=O)n1` ; field requested: Percent Effect -12.09

# input compound: `Cc1ncsc1CCC(=O)N1CCCC[C@H](N(C)C)C1` ; wanted: its Percent Effect 4.231

Please report the recorded Percent Effect for CN1CCCC(N(C)S(=O)(=O)c2cccc3ncccc23)C1 (stereo not given) . 142.2

Tell me the measured Percent Effect of CCS(=O)(=O)NCCCNC(=O)N(C)C(C)c1ccccn1 (stereo not given) , please. -6.07
